Origin of values: paper PMC7802075

target: LmjIPCS (inositol phosphorylceramide synthase from L. major) (Leishmania major); assay: biochemical; assay type: biochemical; design: dose or concentration left out as unconfirmed; settings: read-out: inhibition LmjIPCS
property: inhibition (%)
One number for each entry, in %.

Solved cases (6 shown):
INSERT INTO assay_data (compound, observed_result) VALUES
  ('O=C1C(CC[S+]([O-])c2ccccc2)C(=O)N(c2ccccc2)N1c1ccccc1 (stereo not shown) [SULFINPYRAZONE]', -6),
  ('C[C@@]12C[C@@]3(O)O[C@@H](O1)[C@]1(COC(=O)c4ccccc4)[C@H]3C[C@@]12O[C@@H]1O[C@H](CO)[C@@H](O)[C@H](O)[C@H]1O [PEONIFLORIN]', 12),
  ('O=C1CC[C@@]2(O)[C@H]3Cc4ccc(O)c5c4[C@@]2(CCN3CC2CC2)[C@H]1O5 [NALTREXONE]', 8),
  ('CCn1cc(C(=O)O)c(=O)c2cc(F)c(N3CCNC(C)C3)c(F)c21 (stereo not shown) [LOMEFLOXACIN]', 4),
  ('C[C@H](CCC(=O)O)[C@H]1CC[C@H]2[C@@H]3[C@@H](O)C[C@@H]4C[C@H](O)CC[C@]4(C)[C@H]3CC[C@]12C [URSODIOL]', 8),
  ('CCCC(CCC)C(=O)O [VALPROATE SODIUM]', 0.506);

Moving on to the next compound.
Provide the documented inhibition with LmjIPCS (inositol phosphorylceramide synthase from L. major) (Leishmania major) as the system for C[C@@H]1CC[C@H]2[C@@H](C)C(=O)O[C@@H]3O[C@@]4(C)CC[C@@H]1[C@]32OO4 [ARTEMISININ]
1.06

* * *

biological target: LmjIPCS (inositol phosphorylceramide synthase from L. major) (Leishmania major, UniProt E9AFX2); test: biochemical; assay type: biochemical; conditions: read-out: 20mM inhibition LmjIPCS
Sequence (E9AFX2 whole entry): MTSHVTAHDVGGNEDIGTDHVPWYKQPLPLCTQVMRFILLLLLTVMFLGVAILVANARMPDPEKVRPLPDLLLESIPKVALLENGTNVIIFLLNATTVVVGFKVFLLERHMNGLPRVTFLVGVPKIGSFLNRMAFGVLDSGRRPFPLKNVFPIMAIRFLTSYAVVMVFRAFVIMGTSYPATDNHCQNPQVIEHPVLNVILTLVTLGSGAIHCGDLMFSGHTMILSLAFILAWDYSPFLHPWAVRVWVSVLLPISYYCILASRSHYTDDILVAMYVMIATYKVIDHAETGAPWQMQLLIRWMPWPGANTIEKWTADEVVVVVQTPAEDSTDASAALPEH
Record Condition met whenever inhibition at 20000 µM is at 10% or higher; record Condition not met when lower.

Worked examples, 5 compounds total:
INSERT INTO results (compound, classification) VALUES
  ('CC(=O)OCC(=O)[C@@]12OC3(CCCC3)O[C@@H]1C[C@H]1[C@@H]3CCC4=CC(=O)C=C[C@]4(C)[C@@]3(F)[C@@H](O)C[C@@]12C [AMCINONIDE]', 'Condition met'),
  ('Cc1onc(-c2ccccc2)c1C(=O)N[C@@H]1C(=O)N2[C@@H]1SC(C)(C)[C@@H]2C(=O)O', 'Condition met'),
  ('NC1(C(=O)O)CCCC1', 'Condition met'),
  ('NC(=O)C[S+]([O-])C(c1ccccc1)c1ccccc1 (centres unmarked)', 'Condition met'),
  ('O=c1cc[nH]c(=S)[nH]1', 'Condition not met');

Would you say COC(=O)C1=CCCN(C)C1 shows inhibition at 20000 µM at minimum 10%?
Condition not met

Decide: inhibition at 20000 µM of Cc1onc(-c2c(Cl)cccc2Cl)c1C(=O)N[C@@H]1C(=O)N2[C@@H]1SC(C)(C)[C@@H]2C(=O)O >= 10%?
Condition not met

Identify whether the reported inhibition at 20000 µM of the following compound is 10% or greater: COc1cc([C@@H]2c3cc4c(cc3[C@H](O)[C@H]3COC(=O)[C@H]23)OCO4)cc(OC)c1OC
Condition met
